- System Tested: T1, CD134 protein (His-tagged, Sino Biological Inc. 10481-H08H) (human, UniProt P43489 29-216)
- T1 construct: bought protein coated on ELISA plates; also called OX40; TNFRSF4; not shown: His tag
- T1 sequence (looked up): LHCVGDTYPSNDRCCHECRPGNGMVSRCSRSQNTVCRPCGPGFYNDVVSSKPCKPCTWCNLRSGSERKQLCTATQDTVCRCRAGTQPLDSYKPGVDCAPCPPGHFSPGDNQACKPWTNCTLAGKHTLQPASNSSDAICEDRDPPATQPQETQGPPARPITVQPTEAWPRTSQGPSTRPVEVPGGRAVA
- Assay: ELISA, coated His-tagged CD134; further: test concentration or dose not given here
Endpoint: ELISA [abs. corr.] (abs. corr.)

P018.S.11.A.F05 (antibody, V domains shown, V regions on human Ig constant parts; also called AB134_41) VH: QSLEESGGRLVTPGTPLTLTCTVSGFSLSRYHMSWVRQAPGKGLEYIGYIHTDDTNWYASWAKGRFTISKTSTTVDLKITSPTTEDTATYFCARVSSVGGYYFDLWGQGTLVTVSS VL: DVVMTQTPASVSEPVGGTVTIKCQASEDIYNLLAWYQQKPGQPPKLLIYAASTLASGVPSRFKGSGSGTQFTLTISDLESADAATYYCQNNYLISSYGVGFGGGTEVVVK; 1.67
P018.S.11.A.E04 (antibody, V domains shown, V regions on human Ig constant parts; also called AB134_35) VH: QSVEESGGRLVTPGTPLTLTCTVSGFSLNDYAMSWVRQAPGKGLEWIGSIYTSGTPYYATWAKGRFTISKTSTTVDLKITSPTTEDTATYFCARQSGIDNYWLFTLWGQGTLVCVSS VL: AYDMTQTPASVEVGVGGTVTIKCQASESIASGLAWYQQKPGQRPKLLIYSASSLASGVSSRFKGSGSGTQFTLTISDLESADAANYYCQQGYTSTNLHNVFGGGTEVVVK; 1.31
P018.S.12.A.E05 (antibody, V domains shown, V regions on human Ig constant parts; also called AB134_76) VH: QSVEESGGRLVTPGGSLTLTCTASGFDLSSYATSWVRQAPGKGLEWIGIIYGSGSTTYASWVKGQFTISKSSSTTVDLKMTSLTTEDTATYFCARGLVASTDNYNLWGPGTLVTVSS VL: AAVLTQTPSPVSVAVGGTVTINCQASQSVYNNNYLAWFQQKPGQPPKLLIYLASILASGVPSRFKGSGSGTQFTLTINGVQSDDAATYYCLGDVGGGERVFGGGTEVVVK; 1.93
P018.S.03.A.E03 (antibody, V domains shown, V regions on human Ig constant parts; also called AB134_4) VH: QSVEESGGRLVTPGTPLTLTCTVSGFSLSTYGMSWVRQAPGKGLEWIGIIDAGDSPYYASWVKGRFTISKTSTTVDLKITSLTTEDTATYFCARIAGSNHGPFSLWGPGTLVTVSS VL: DVVMTQTPASVSEPVGGTVTINCQASEFISNYLAWYQQKPGQPPKLLIYGASTLASGVPSRFSGSGSGTQFTLTISDLESDDAATYYCQCTAYGSGYVGFGGGTEVVVK; 2.72
P018.S.12.A.D04 (antibody, V domains shown, V regions on human Ig constant parts; also called AB134_69) VH: QSVEESGGRLVTPGTPLTLTCTVSGIDLSSYAMGWVRQAPGKGLEYIGIISYDGSTYYASWAKGRFTISKTSTTVDLKITSPTTEDTATYFCARVDYGDYNFALWGQGTLVTVSS VL: DVVMTQTPASVSEVVGGTVTIKCQASESISNYLAWYQQKPGQPPKLLIYAASNLASGVPSRFSGSGSGTQFTLTISDLESADAATYYCQCTYYVSSYFAFSGGTEVVVK; 2.23
P018.S.04.A.B04 (antibody, V domains shown, V regions on human Ig constant parts; also called AB134_6) VH: QSLEESGGRLVTPGTPLTLTCTASGIDLNNYAMSWVRQAPGKGLEWIGIISGAGYTYYTTWAKGRFTISKTSTTVDLKITSPTTEDTATYFCARIYDSYGYAYVPYYDMDLWGPGTLVTVSS VL: AAVLTQTPSPVSTAVGGTVTINCQSSQSVFMNNYLSWYQQKPGQPPKLLIYDASTLASRVPDRFSGSGSGTQFTLTISGVQSDDAAAYYCLGGYDDDSATTFGGGTEVVVE; 3.21
P018.S.12.A.C05 (antibody, V domains shown, V regions on human Ig constant parts; also called AB134_65) VH: QSLEESGGRLVTPGTPLTLTCTASGFSLSNYYMNWVRQAPGKGLEWIGIIDKSGSAYYASWARGRFTISKTSTTVGLKIPSPTTEDTATYFCARGYGGYADHGLGLWGQGTLVTVSS VL: DVVMTQTPASVSEPVGGTVTIKCQASQSIAGWLAWYQQKPGQPPKLLIYQASKLASGVPSRFSGSGSGTEYTLTISDLESDDAATYYCQCTYGSGSGSNGFGGGTEVVVK; 2.94
P018.S.12.A.A02 (antibody, V domains shown, V regions on human Ig constant parts; also called AB134_51) VH: QSLEESGGRLVTPGTPLTLTCTASGFSLSTYYMTWVRQAPGKGLEWIGDIYVRGGARYANWAKGRFTISRTSTTVDLRITSPTTEDTATYFCAREGLSLWGQGTLVTVSS VL: AQVLTQTASPVSAAVGGTVTINCQSSQSVYKNNRLAWYQQKPGQPPKLLIYETSKLESGVSSRFKGSGSGTQFTLTISGVQSDDAATYYCLGGYDCGSADCNAFGGGTEVVVK; 1.58
P018.S.11.A.A03 (antibody, V domains shown, V regions on human Ig constant parts; also called AB134_20) VH: QSLEESGGDLVKPGASLTLPCTASGFTLSGYWMCWVRQAPGKGLEWIGCIYNGDGSTYYASWAKGRFTISKTSSTTVTLQMTSLTAADTATYFCARDSNGWGAYGLWGPGTLVTVSS VL: AIEMTQTPSSVSAAVGGTVTIDCQASQSIGSYLSWYQQKPGQPPKLLIYDASDLASGVPSRFSGSGSGTEFTLTISGVQSDDAATYYCQGGYYSSATEIAFGGGTEVVVK; 1.93
P018.S.11.A.G05 (antibody, V domains shown, V regions on human Ig constant parts; also called AB134_45) VH: QSLEESGGDLVKPGASLTLTCAASGFSLNNWVMCWVRQAPGKGLEWIACIDIVGSGSTHYATWAKGRFTMSKASSITVTLQMTSLTAADTATYFCARGVNGDGNLNLWGPGTLVTVSS VL: DVVMTQTPASVSEPVGGAVTIKCQASETISNYLAWYQQKPGQRPKLLIYGASNLESGVPSRFKGSGSGTEFTLTISDLESADAATYYCQCTYVGDSYTAFGGGTEVVVK; 2.36
P018.S.11.A.D04 (antibody, V domains shown, V regions on human Ig constant parts; also called AB134_31) VH: QSVEESGGRLVTPGTPLTLTCTVSGFSLNSYDMSWVRQAPGKGLEWIGFISASGSIYFASWAKGRFTISKTSTTVDLKITSPTTEDTATYFCASDSYGWAYVYYFNLWGPGTLVTVSS VL: AVVLTQTPASVSPAVGGTVTINCRASEDIGSYLGWYQQKPGQPPKLLMHDASDLASGVPSRFSGSGSGTEFTLTISGVQSDDAATYYCQSAWYSSNTDKMAFGGGTEVVVK; 2.07

Source: patent US20210253725A1
